This collection of values is drawn from patent US5622962A.

measurement.target: Type I 5α-Reductase from Human Scalp (Homo sapiens)
Construct: Scalp punch biopsies from graft recipient sites were obtained from human hair transplant procedures; from tissue; host or cells: human scalp punch biopsies (hair transplant graft recipient sites), homogenate, 100,000×g pellet
Sequence (P18405 whole entry): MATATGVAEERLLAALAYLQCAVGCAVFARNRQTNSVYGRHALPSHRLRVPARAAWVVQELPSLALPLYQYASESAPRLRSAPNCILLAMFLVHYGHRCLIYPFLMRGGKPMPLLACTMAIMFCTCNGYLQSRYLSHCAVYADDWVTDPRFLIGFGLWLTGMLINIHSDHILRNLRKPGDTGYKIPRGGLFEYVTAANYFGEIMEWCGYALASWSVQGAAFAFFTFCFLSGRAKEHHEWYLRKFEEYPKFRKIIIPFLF
experiment.description: Human Type I 5α-reductase assay (conversion of [3H]-testosterone to 5α-reduced metabolites)
Type: biochemical
experimental.conditions: pH 7.5, 0.3 μM; 50 nM [3H]-testosterone, pH 7.5, 25°, 180 min; compared to control reaction mixtures; read-out: percent inhibition of Type I AR
metric.name: inhibition at 0.3 µM (%)
Express it in %; write the number only.

Worked cases, answers included:
>>> observed("Cc1ccc(C(F)(F)F)c2sc(Sc3ccc4c(c3)CC[C@H]3N(C)C(=O)CC[C@]43C)nc12")
76
>>> observed("CN1C(=O)CC[C@]2(C)c3ccc(Cc4ccccc4)cc3CC[C@@H]12")
82
>>> observed("CN1C(=O)CC[C@]2(C)c3ccc(-c4ccncc4)cc3CC[C@@H]12")
28

// inhibition at 0.3 µM value for `CC(=O)N1CCc2cc(-c3ccc4c(c3)CC[C@H]3N(C)C(=O)CC[C@]43C)ccc21` : 72

###

measurement.target: Type II 5α-Reductase from Human Prostate (Homo sapiens, UniProt P31213)
Construct: The same procedure as above was used for preparations using tissue from prostate surgery; from tissue; host or cells: human prostate tissue from surgery, homogenate, 100,000×g pellet
experiment.description: Human Type II 5α-reductase assay (conversion of [3H]-testosterone to 5α-reduced metabolites)
Format: biochemical
experimental.conditions: pH 5.5, 0.3 μM; sodium acetate pH 5.5, 25°, 30 min; compared to control reaction mixtures; read-out: percent inhibition of Type II AR
metric.name: inhibition at 0.3 µM (%)
Answer with a number only, understood to be in %.

>>> observed("CN1C(=O)CC[C@]2(C)c3ccc(Sc4nc(-c5ccccc5)nc5ccccc45)cc3CC[C@@H]12")
36
>>> observed("CN1C(=O)CC[C@]2(C)c3ccc(Sc4ccc5c([N+](=O)[O-])cccc5n4)cc3CC[C@@H]12")
61
>>> observed("CN1C(=O)CC[C@]2(C)c3ccc(-c4cc5c6c(c4)N(C(=O)c4ccccc4)C[C@@H]6C[C@H](N)C5)cc3CC[C@@H]12")
8
>>> observed("CN1C(=O)CC[C@]2(C)c3ccc(-c4cccc(CNC(c5ccccc5)c5ccccc5)c4)cc3CC[C@@H]12")
11
>>> observed("CN1C(=O)CC[C@]2(C)c3ccc(-c4cccc(F)c4)cc3CC[C@@H]12")
27
>>> observed("CN1C(=O)CC[C@]2(C)c3ccc(Sc4nc5c(ccc6ccccc65)s4)cc3CC[C@@H]12")
86

Here `CN1C(=O)CC[C@]2(C)c3ccc(/C=C/c4ccc5ccccc5n4)cc3CC[C@@H]12` was tested on Type II 5α-Reductase from Human Prostate (Homo sapiens, UniProt P31213), and its inhibition at 0.3 µM came to 37

The measured inhibition at 0.3 µM that `Cc1ccccc1Sc1ccc2c(c1)CC[C@H]1NC(=O)CC[C@]21C` showed for Type II 5α-Reductase from Human Prostate (Homo sapiens, UniProt P31213) is 31

###

measurement.target: Type II 5α-Reductase from Human Prostate (Homo sapiens)
Construct: The same procedure as above was used for preparations using tissue from prostate surgery; from tissue; host or cells: human prostate tissue from surgery, homogenate, 100,000×g pellet
Sequence (P31213 1-254): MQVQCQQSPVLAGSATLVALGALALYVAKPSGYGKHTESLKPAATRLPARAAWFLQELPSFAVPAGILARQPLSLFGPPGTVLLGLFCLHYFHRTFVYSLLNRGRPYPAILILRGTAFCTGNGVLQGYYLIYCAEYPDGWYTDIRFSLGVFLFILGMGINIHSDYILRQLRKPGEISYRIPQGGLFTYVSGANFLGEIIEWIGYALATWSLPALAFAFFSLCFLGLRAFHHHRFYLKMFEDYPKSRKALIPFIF
experiment.description: Human Type II 5α-reductase assay (conversion of [3H]-testosterone to 5α-reduced metabolites)
Type: biochemical
experimental.conditions: pH 5.5, read-out: percent inhibition of Type II AR
metric.name: inhibition at 0.3 µM (%)
Field format: number, assumed %, no unit text.

Here's what some known entries look like.
>>> observed("CN1C(=O)CC[C@]2(C)c3ccc(-c4cc5ccccc5c5ccccc45)cc3CC[C@@H]12")
54
>>> observed("CN1C(=O)CC[C@]2(C)c3ccc(-c4ccc([N+](=O)[O-])cc4C(F)(F)F)cc3CC[C@@H]12")
34
>>> observed("CN1C(=O)CC[C@]2(C)c3ccc(/C=C/c4ccccc4)cc3CC[C@@H]12")
60

Consider now this further molecule.
// recorded inhibition at 0.3 µM for `CN1C(=O)CC[C@]2(C)c3ccc(-c4ccc(C(F)(F)F)cc4F)cc3CC[C@@H]12` : 38
